Test target: T1, MUC1 on HCT116/MUC1 cells (UniProt P15941 24-1255, limits assumed)
T1 construct: whole, on cells; also called MUC1 overexpressed cell line
T1 sequence (P15941 24-1255 limits assumed): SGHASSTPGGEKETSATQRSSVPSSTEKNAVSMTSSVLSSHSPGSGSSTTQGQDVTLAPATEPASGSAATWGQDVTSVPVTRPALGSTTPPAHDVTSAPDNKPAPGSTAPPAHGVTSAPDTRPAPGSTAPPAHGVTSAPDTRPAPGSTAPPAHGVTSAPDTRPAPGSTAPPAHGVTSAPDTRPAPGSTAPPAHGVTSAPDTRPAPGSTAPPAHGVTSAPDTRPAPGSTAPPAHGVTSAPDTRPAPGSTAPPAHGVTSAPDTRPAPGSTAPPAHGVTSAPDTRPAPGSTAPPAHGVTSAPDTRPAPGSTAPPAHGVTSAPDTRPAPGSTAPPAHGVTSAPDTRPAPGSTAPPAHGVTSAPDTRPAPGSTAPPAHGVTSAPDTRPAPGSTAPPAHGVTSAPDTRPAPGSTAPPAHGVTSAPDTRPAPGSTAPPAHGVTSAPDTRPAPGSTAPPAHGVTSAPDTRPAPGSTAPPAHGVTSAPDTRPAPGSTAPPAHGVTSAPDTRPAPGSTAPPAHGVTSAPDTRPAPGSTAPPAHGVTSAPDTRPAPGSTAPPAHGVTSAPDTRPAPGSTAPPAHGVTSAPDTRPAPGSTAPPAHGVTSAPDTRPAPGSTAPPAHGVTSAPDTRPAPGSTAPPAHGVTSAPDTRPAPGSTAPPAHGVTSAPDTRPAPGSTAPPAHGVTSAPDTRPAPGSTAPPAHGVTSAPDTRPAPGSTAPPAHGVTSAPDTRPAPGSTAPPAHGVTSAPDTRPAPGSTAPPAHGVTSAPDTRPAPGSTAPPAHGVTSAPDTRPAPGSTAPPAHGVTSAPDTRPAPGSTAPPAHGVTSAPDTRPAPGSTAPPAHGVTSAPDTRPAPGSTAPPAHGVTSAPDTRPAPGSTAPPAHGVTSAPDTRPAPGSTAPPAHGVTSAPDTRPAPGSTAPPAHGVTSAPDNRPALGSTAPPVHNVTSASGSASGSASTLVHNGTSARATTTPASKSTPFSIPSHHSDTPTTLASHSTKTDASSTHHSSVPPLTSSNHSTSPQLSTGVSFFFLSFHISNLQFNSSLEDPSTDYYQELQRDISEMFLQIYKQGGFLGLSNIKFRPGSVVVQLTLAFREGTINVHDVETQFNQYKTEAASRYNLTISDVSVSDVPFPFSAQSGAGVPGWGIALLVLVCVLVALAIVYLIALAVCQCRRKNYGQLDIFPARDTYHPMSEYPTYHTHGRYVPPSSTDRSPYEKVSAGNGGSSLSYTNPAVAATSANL
Experiment: FACS titration, HCT116/MUC1 cells, antibody at 3.906 nM
Method: To assess cell binding, 2×10⁵ HCT116/MUC1 cells per well were washed with PBS twice and incubated in 200 μl of serial dilutions of chimeric or humanized antibodies for 1 hour at room temperature. After washing 3 times with PBS, secondary antibody (2 μg/ml Alexa Flour®488 goat anti-human IgG) was added to cells and incubated for 30 minutes at room temperature. After washing with PBS, cells were analyzed by using FACSCalibur (BD Bioscience, San Jose, Calif.) and Flowjo software.
Readout kind: geometric mean
# respond with the number and nothing more

Binder	geometric mean
VH2 + VL3 (antibody, V domains shown, Humanized IgG expressed in HEK293; also called humanized antibody VH2+VL3) VH: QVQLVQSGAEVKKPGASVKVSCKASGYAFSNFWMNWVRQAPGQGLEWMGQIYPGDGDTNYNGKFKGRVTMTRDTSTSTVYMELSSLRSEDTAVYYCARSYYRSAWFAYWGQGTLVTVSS VL: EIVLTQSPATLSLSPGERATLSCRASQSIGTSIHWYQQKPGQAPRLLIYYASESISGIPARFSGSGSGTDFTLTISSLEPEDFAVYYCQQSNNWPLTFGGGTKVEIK	4.03

Ask: Data request, read-out geometric mean, for VH1 + VL1 (antibody, V domains shown, Humanized IgG expressed in HEK293; also called humanized antibody VH1+VL1) VH: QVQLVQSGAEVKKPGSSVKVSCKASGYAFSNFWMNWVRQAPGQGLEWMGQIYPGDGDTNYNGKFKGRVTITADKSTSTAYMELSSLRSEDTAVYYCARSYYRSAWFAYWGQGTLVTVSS VL: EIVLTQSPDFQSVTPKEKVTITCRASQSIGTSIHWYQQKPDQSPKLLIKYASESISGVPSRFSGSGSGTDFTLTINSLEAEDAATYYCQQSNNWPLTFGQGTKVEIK
Reply: 9.54

Ask: Input VH5 + VL1 (antibody, V domains shown, Humanized IgG expressed in HEK293; also called humanized antibody VH5+VL1) VH: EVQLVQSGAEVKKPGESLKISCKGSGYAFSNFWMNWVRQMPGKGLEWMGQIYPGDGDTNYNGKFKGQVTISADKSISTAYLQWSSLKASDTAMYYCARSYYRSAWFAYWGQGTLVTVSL VL: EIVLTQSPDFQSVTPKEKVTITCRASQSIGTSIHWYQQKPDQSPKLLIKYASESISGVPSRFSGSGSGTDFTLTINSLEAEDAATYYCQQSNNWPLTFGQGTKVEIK
Reply: 20

These measurements were taken from patent US20180036441A1.
